Every entry's value here was drawn from patent US20260116921A1.

# Study Target: IL-23R (Homo sapiens)
# Assay: DB cells IL23R pSTAT3 cell assay (pStat3 HTRF)
# Assay type: cell-based
# Conditions Used: Table E3; DB cells, IL-23 0.5 nM, 30 minutes at 37° C.; read-out: pStat3 HTRF (IC50)
Bridge positions count the residues as written; N and C are the ends. Square brackets hold non-standard residues; d marks the D form. Peptide text beside a SMILES is read from it. Trp(7-Me) = Cc1cccc2c(C[C@H](N)C(=O)O)c[nH]c12; 2Nal = N[C@@H](Cc1ccc2ccccc2c1)C(=O)O; AEF = NCCOc1ccc(C[C@H](N)C(=O)O)cc1; Cit = NC(=O)NCCC[C@H](N)C(=O)O; Pen = CC(C)(S)[C@H](N)C(=O)O; αMeK = C[C@](N)(CCCCN)C(=O)O; Aib = CC(C)(N)C(=O)O
Measured Property: IC50

Study these solved cases before continuing.
Compound	Test Value
CC(=O)NCCCC[C@@H]1NC(=O)[C@H](Cc2c[nH]c3c(C)cccc23)NC(=O)[C@H]([C@@H](C)O)NC(=O)[C@H](CC(N)=O)NC(=O)[C@@H](NC(C)=O)C(C)(C)SSC(C)(C)[C@@H](C(=O)N[C@@H](Cc2ccc(OCCN)cc2)C(=O)N[C@@H](Cc2ccc3ccccc3c2)C(=O)N[C@@](C)(CCCCN)C(=O)N[C@@H](CCC(=O)O)C(=O)NCCC(=O)NCCC(N)=O)NC1=O [compound 273]	1 to 10 nM
CC(=O)NCCCC[C@H](NC(=O)[C@](C)(CCCCN)NC(=O)[C@H](Cc1ccc2ccccc2c1)NC(=O)[C@H](Cc1ccc(OCCN)cc1)NC(=O)[C@H]1NC(=O)[C@H](CCCCNC(=O)CN)NC(=O)[C@H](Cc2c[nH]c3c(C)cccc23)NC(=O)[C@H]([C@@H](C)O)NC(=O)[C@H](CC(N)=O)NC(=O)[C@@H](NC(C)=O)C(C)(C)SSC1(C)C)C(=O)N[C@@H](CC(N)=O)C(=O)N[C@H](CC(C)C)C(N)=O [compound 320]	< 1 nM

Shift focus to the following entry.
get_value(item= CC(=O)NCCCC[C@H](NC(=O)[C@](C)(CCCCN)NC(=O)[C@H](Cc1ccc2ccccc2c1)NC(=O)[C@H](Cc1ccc(OCCN)cc1)NC(=O)[C@H]1NC(=O)[C@H](CCCNC(N)=O)NC(=O)[C@H](Cc2c[nH]c3c(C)cccc23)NC(=O)[C@H]([C@@H](C)O)NC(=O)[C@H](CC(N)=O)NC(=O)[C@@H](NC(C)=O)C(C)(C)SSC1(C)C)C(=O)N[C@@H](CC(N)=O)C(=O)NC(C)(C)C(=O)N[C@@H](C)C(N)=O [compound 342] (Ac-[Pen]NT[Trp(7-Me)][Cit][Pen][AEF][2Nal][αMeK]K(Ac)N[Aib]A-NH2; disulfide 1-6) , readout=IC50) returns < 1 nM

====

Listing: IC50 of selected compounds
# Study Target: IL-23R (Homo sapiens, UniProt Q5VWK5)
# Sequence (Q5VWK5 24-629): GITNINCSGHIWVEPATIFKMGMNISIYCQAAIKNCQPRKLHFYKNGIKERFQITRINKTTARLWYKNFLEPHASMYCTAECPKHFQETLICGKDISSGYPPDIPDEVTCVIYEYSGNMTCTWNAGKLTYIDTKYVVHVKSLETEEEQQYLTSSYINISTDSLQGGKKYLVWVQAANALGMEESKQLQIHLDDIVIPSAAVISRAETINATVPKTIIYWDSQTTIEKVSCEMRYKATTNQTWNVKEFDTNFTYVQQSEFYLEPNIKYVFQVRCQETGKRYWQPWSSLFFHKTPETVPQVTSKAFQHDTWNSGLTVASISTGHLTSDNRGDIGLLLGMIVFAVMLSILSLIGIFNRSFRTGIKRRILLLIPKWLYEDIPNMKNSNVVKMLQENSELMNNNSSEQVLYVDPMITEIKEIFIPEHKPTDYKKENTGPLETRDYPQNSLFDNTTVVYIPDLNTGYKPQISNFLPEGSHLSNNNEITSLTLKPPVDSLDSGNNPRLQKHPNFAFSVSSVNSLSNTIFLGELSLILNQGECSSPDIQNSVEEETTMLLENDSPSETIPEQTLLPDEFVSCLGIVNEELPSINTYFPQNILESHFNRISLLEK
# Assay: DB cells IL23R pSTAT3 cell assay (pStat3 HTRF)
# Assay type: cell-based
# Conditions Used: Table E3; DB cells, IL-23 0.5 nM, 30 minutes at 37° C.; read-out: pStat3 HTRF (IC50)

Study these solved cases before continuing.
Compound	Study Target	Measured Property	Test Value
CCC(CC)(NC(=O)[C@H](Cc1ccc2ccccc2c1)NC(=O)[C@H](Cc1ccc(OCCN)cc1)NC(=O)[C@H]1NC(=O)[C@H](CCC(N)=O)NC(=O)[C@H](Cc2c[nH]c3c(C)cccc23)NC(=O)[C@H]([C@@H](C)O)NC(=O)[C@H](CC(N)=O)NC(=O)[C@@H](NC(C)=O)C(C)(C)SSC1(C)C)C(=O)N[C@@H](CCCCNC(C)=O)C(=O)N[C@@H](CC(N)=O)C(=O)NCCC(N)=O [compound 276]	IL-23R (Homo sapiens, UniProt Q5VWK5)	IC50	< 1 nM
CC(=O)NCCCC[C@H](NC(=O)[C@](C)(CC(C)C)NC(=O)[C@H](Cc1ccc2ccccc2c1)NC(=O)[C@H](Cc1ccc(OCCN)cc1)NC(=O)[C@H]1NC(=O)[C@H](CCC(N)=O)NC(=O)[C@H](Cc2c[nH]c3c(C)cccc23)NC(=O)[C@H]([C@@H](C)O)NC(=O)[C@H](CC(N)=O)NC(=O)[C@@H](NC(C)=O)C(C)(C)SSC1(C)C)C(=O)N[C@@H](CC(C)C)C(=O)NCCC(N)=O [compound 208]	IL-23R (Homo sapiens, UniProt Q5VWK5)	IC50	1 to 10 nM
CC(=O)N[C@H]1CCSC[C@@H](C(=O)N[C@@H](Cc2ccc(OCCN)cc2)C(=O)N[C@@H](Cc2ccc3ccccc3c2)C(=O)NC2(C(=O)N[C@@H](CCC(=O)O)C(=O)N[C@@H](CC(N)=O)C(=O)NCCC(N)=O)CCOCC2)NC(=O)[C@H](CCC(N)=O)NC(=O)[C@H](Cc2c[nH]c3c(C)cccc23)NC(=O)[C@H]([C@@H](C)O)NC(=O)[C@H](CCC(N)=O)NC1=O [compound 204]	IL-23R (Homo sapiens, UniProt Q5VWK5)	IC50	1 to 10 nM

Shift focus to the following entry.
get_value(item= CC(=O)NCCCC[C@H](NC(=O)[C@](C)(CC(C)C)NC(=O)[C@H](Cc1ccc2ccccc2c1)NC(=O)[C@H](Cc1ccc(OCCN)cc1)NC(=O)[C@H]1NC(=O)[C@H](CCC(N)=O)NC(=O)[C@H](Cc2c[nH]c3c(C)cccc23)NC(=O)[C@H]([C@@H](C)O)NC(=O)[C@H](CC(N)=O)NC(=O)[C@@H](NC(C)=O)C(C)(C)SSC1(C)C)C(=O)N[C@H](Cc1c[nH]cn1)C(=O)NCCC(N)=O [compound 215] , readout=IC50) returns 1 to 10 nM
